Recorded SH2 binding enrichment by entry
- system-name: Grb2 SH2 (UniProt P62993)
- Sequence (P62993 whole entry, looked up, the tested form may be a part): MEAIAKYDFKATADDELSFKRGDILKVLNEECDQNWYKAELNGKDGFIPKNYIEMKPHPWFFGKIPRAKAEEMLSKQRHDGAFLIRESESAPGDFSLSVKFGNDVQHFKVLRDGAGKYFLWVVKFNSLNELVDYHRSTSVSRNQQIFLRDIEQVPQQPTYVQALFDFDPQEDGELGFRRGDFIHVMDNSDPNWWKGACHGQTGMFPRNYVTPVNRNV
- measurement-description: SH2 binding enrichment of the phosphorylated peptide, bacterial display (enrichment ratio); higher = better substrate or ligand; peptides without Tyr show the background;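 also: peptide library displayed on the E. coli surface as eCPX fusions, selected cells deep-sequenced, score is each peptide's frequency after selection divided by its frequency in the input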

sequence-input | SH2 binding enrichment
LESETYRRLLD [KRT12_Y429_I426S] | 0.915
SSVKLYRVYCD [FGB_Y266_P265L] | 0.893
ANVIHYFPTQA [SLC25A4_Y81_R80H] | 0.9
LFVDVYGPSVP [NUBPL_Y109_D105Y_YF] | 0.921
LRNIDYYRLDG [ATRX_Y2083] | 0.874
MCITQYKRESQ [PRNP_Y218_E219K] | 0.897
SLLKDYSPQLQ [OTC_Y345_T343K] | 0.884
